Target of assay: T1, human PVRIG expressed on cells (human, UniProt Q6DKI7 41-326)
T1 sequence (looked up): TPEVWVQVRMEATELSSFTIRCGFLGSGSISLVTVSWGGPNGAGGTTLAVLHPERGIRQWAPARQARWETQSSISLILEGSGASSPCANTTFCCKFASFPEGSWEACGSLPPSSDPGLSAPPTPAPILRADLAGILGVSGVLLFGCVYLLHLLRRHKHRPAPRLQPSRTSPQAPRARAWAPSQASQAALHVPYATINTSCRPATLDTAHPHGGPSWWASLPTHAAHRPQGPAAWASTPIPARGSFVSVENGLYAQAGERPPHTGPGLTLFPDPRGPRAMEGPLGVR
Method: cell-based or functional assay
Parameter: NK92 killing of K562, killing activity (%), 4 nM antibody. Scope: all listed entries.

Recorded results for 4 binders are shown here.
Binder	Measured
humanized anti-PVRIG antibody 39H1 (antibody, human IgG4 S228P, F234A L235A, V domains shown) VH: EVQLVESGGGLVQPGGSLRLSCAASGFTFSTDCMGWFRQAPGKGLEGVAHIDSDGIPRYVESVKGRFTISRDNAKNSLYLQMNSLRAEDTAVYYCVVGFKFGDYCAPNDWGQGTMVTVSS	13.7%
humanized anti-PVRIG antibody 151H7 (antibody, human IgG4 S228P, F234A L235A, V domains shown) VH: HVQLVESGGGLVQPGGSLRLSCVASASGFTYRPYCMAWFRQAPGKEREAVAGIDIFGGTTYADSVKGRFTASRDNAGFSLYLQMNSLRAEDTAVYYCAAGDSPDGRCPPLGQGLNYWGQGTMVTVSS	16.9%
humanized anti-PVRIG antibody 39H2 (antibody, human IgG4 S228P, F234A L235A, V domains shown) VH: EVQLVESGGGLVQPGGSLRLSCAASGFTSRTDCMGWFRQAPGKGLEGVAHIDSDGIPRYVESVKGRFTISRDNAKNSLYLQMNSLRAEDTAVYYCVVGFKFGDYCAPNDWGQGTMVTVSS	15.3%
anti-PVRIG antibody 39 (antibody, human IgG4 S228P, F234A L235A, V domains shown, no light chain) VH: QVQLVESGGGSVQAGGSLRLSCAASRYTSRTDCMGWFRQAPGKEREGVAHIDSDGIPRYVESVKGRFTISQDHAKNTLYLQMNSLKPEDSATYYCVVGFKFGDYCAPNDWGQGTQVTVSS	21.3%

Could you now consider this next binder?
Challenge: // lookup NK92 killing of K562, killing activity (%), 4 nM antibody for anti-PVRIG antibody 151 (antibody, human IgG4 S228P, F234A L235A, V domains shown, no light chain) VH: HVQLVESGGGSVQAGGSLRLSCVASASGFTYRPYCMAWFRQAPGKEREAVAGIDIFGGTTYADSVKGRFTASRDNAGFSLFLQMNDLKPEDTAMYYCAAGDSPDGRCPPLGQGLNYWGQGTQVTVSS
Response given: 20.9%

Source: patent US20240376207A1
